pIC50: recorded values
- system tested: human SGLT2 (Homo sapiens)
- Sequence (P31639 whole entry): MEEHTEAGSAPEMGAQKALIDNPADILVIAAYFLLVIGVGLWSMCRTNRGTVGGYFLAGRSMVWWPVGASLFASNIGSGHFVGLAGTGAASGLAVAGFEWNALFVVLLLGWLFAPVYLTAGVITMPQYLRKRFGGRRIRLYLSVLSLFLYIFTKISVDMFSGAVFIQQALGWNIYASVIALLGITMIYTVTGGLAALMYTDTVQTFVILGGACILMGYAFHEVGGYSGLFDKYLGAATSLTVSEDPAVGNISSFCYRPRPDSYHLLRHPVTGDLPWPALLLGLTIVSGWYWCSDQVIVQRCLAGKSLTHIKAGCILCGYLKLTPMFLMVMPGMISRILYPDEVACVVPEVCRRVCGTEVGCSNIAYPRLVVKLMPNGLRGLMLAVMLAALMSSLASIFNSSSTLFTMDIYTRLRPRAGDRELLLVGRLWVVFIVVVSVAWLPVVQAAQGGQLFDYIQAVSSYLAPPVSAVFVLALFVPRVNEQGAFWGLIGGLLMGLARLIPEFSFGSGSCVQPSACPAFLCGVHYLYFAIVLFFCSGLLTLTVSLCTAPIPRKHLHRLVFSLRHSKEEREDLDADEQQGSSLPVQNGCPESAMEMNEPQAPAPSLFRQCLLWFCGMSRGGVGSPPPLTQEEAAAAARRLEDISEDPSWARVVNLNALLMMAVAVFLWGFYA
- protocol description: Inhibition test for sodium-dependent sugar uptake in CHO-K1 cells stably expressing human SGLT2, Method B
- run parameters: uptake 37° C., 60 minutes, read-out: IC50 for hSGLT2 Method B
pIC50: −log10 of the molar value.
result type: pIC50

• COc1cc(C(C)C)c(Cc2ccc(/C=C/C(C)(C)C(=O)NC(C)(C)C(=O)N3CCN(C)CC3)cc2C)cc1[C@@H]1O[C@H](CO)[C@@H](O)[C@H](O)[C@H]1O = 6.55
• COc1cc(C(C)C)c(Cc2ccc(/C=C/C(C)(C)C(=O)NC(C)(C)C(=O)N3CCNCC3)cc2C)cc1[C@@H]1O[C@H](CO)[C@@H](O)[C@H](O)[C@H]1O = 6.70
• Cc1cc(/C=C/C(C)(C)C(=O)NC(C)(C)C(=O)NCCN(C)C)ccc1Cc1cc([C@@H]2O[C@H](CO)[C@@H](O)[C@H](O)[C@H]2O)c(O)cc1C(C)C = 7.13

---

- system tested: human SGLT1 (Homo sapiens, UniProt P13866)
- Sequence (P13866 whole entry): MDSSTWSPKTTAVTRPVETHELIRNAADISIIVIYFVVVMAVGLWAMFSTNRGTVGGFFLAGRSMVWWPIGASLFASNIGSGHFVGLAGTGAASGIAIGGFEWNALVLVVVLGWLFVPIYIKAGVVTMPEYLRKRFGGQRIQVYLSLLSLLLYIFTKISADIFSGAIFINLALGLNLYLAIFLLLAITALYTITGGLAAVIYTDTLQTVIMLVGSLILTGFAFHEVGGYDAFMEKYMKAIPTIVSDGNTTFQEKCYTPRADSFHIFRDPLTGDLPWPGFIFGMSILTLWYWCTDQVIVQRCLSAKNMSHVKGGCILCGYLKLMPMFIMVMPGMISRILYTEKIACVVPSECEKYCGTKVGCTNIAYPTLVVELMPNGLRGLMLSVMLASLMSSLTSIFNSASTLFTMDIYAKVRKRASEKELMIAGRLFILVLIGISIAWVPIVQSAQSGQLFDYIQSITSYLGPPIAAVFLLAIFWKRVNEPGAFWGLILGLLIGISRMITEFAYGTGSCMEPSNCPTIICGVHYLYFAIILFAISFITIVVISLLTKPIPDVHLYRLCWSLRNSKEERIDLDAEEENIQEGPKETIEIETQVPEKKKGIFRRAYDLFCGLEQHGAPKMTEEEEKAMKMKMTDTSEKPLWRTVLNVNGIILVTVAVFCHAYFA
- protocol description: Inhibition test for sodium-dependent sugar uptake in CHO-K1 cells stably expressing human SGLT1
- run parameters: [14C]methyl α-D-glucopyranoside uptake, 37° C., 30 minutes, read-out: IC50 for hSGLT1
pIC50: −log10 of the molar value.
result type: pIC50

* COc1cc(C(C)C)c(Cc2ccc(/C=C/C(C)(C)C(=O)NC(C)(C)C(=O)NCCN(C)C)cc2)cc1[C@@H]1O[C@H](CO)[C@@H](O)[C@H](O)[C@H]1O [Example 15-2] | 7.54
* COc1cc(C(C)C)c(Cc2ccc(/C=C/C(C)(C)C(=O)NC(C)(C)C(=O)NCCN)cc2C)cc1[C@@H]1O[C@H](CO)[C@@H](O)[C@H](O)[C@H]1O [Example 8-3] | 7.30
* CCN1CCN(C(=O)C(C)(C)NC(=O)C(C)(C)/C=C/c2ccc(Cc3cc([C@@H]4O[C@H](CO)[C@@H](O)[C@H](O)[C@H]4O)c(OC)cc3C(C)C)c(C)c2)CC1 [Example 11-2] | 7.23
* CCN1CCN(C(=O)C(C)(C)NC(=O)C(C)(C)/C=C/c2ccc(Cc3cc([C@@H]4O[C@H](CO)[C@@H](O)[C@H](O)[C@H]4O)c(O)cc3C(C)C)c(C)c2)CC1 [Example 4-2] | 7.34
* COc1cc(C(C)C)c(Cc2ccc(/C=C/C(C)(C)C(=O)NC(C)(C)C(=O)NCC(C)(C)N)cc2C)cc1[C@@H]1O[C@H](CO)[C@@H](O)[C@H](O)[C@H]1O [Example 13-2] | 7.27
* Cc1cc(/C=C/C(C)(C)C(=O)NC(C)(C)C(=O)N2CCC(N(C)C)CC2)ccc1Cc1cc([C@@H]2O[C@H](CO)[C@@H](O)[C@H](O)[C@H]2O)c(O)cc1C(C)C [Example 5-2] | 7.38
* COc1cc(C(C)C)c(Cc2ccc(/C=C/C(C)(C)C(=O)NC(C)(C)C(=O)N3CCN(C)CC3)cc2C)cc1[C@@H]1O[C@H](CO)[C@@H](O)[C@H](O)[C@H]1O [Example 10-2] | 7.26

---

- protocol description: Kidney concentrations until one week after single oral administration
- Assay type: in vivo
- run parameters: Sprague-Dawley (SD/IGS), rat, single oral 0.3 mg/kg, male Sprague-Dawley rats, mean ± S.D., read-out: Concentration of compounds in kidney After 3 days
result type: concentration at 3 days (ng/g)

• Cc1cc(O)c([C@@H]2O[C@H](CO)[C@@H](O)[C@H](O)[C@H]2O)cc1Cc1ccc(CCNC(=O)NC(CO)(CO)CO)cc1 = 67.3
